biological target: L-type Ca2+ channel (dihydropyridine site), Cav1.2 alpha-1C (Rattus norvegicus, UniProt P22002); assay: CA+/DHPSI/R Eurofins SafetyScreen44 (BI); settings: rat brain, probe [3H](+)PN200-110, compound concentration 10 uM, read-out: % Ctrl
Sequence (P22002 whole entry): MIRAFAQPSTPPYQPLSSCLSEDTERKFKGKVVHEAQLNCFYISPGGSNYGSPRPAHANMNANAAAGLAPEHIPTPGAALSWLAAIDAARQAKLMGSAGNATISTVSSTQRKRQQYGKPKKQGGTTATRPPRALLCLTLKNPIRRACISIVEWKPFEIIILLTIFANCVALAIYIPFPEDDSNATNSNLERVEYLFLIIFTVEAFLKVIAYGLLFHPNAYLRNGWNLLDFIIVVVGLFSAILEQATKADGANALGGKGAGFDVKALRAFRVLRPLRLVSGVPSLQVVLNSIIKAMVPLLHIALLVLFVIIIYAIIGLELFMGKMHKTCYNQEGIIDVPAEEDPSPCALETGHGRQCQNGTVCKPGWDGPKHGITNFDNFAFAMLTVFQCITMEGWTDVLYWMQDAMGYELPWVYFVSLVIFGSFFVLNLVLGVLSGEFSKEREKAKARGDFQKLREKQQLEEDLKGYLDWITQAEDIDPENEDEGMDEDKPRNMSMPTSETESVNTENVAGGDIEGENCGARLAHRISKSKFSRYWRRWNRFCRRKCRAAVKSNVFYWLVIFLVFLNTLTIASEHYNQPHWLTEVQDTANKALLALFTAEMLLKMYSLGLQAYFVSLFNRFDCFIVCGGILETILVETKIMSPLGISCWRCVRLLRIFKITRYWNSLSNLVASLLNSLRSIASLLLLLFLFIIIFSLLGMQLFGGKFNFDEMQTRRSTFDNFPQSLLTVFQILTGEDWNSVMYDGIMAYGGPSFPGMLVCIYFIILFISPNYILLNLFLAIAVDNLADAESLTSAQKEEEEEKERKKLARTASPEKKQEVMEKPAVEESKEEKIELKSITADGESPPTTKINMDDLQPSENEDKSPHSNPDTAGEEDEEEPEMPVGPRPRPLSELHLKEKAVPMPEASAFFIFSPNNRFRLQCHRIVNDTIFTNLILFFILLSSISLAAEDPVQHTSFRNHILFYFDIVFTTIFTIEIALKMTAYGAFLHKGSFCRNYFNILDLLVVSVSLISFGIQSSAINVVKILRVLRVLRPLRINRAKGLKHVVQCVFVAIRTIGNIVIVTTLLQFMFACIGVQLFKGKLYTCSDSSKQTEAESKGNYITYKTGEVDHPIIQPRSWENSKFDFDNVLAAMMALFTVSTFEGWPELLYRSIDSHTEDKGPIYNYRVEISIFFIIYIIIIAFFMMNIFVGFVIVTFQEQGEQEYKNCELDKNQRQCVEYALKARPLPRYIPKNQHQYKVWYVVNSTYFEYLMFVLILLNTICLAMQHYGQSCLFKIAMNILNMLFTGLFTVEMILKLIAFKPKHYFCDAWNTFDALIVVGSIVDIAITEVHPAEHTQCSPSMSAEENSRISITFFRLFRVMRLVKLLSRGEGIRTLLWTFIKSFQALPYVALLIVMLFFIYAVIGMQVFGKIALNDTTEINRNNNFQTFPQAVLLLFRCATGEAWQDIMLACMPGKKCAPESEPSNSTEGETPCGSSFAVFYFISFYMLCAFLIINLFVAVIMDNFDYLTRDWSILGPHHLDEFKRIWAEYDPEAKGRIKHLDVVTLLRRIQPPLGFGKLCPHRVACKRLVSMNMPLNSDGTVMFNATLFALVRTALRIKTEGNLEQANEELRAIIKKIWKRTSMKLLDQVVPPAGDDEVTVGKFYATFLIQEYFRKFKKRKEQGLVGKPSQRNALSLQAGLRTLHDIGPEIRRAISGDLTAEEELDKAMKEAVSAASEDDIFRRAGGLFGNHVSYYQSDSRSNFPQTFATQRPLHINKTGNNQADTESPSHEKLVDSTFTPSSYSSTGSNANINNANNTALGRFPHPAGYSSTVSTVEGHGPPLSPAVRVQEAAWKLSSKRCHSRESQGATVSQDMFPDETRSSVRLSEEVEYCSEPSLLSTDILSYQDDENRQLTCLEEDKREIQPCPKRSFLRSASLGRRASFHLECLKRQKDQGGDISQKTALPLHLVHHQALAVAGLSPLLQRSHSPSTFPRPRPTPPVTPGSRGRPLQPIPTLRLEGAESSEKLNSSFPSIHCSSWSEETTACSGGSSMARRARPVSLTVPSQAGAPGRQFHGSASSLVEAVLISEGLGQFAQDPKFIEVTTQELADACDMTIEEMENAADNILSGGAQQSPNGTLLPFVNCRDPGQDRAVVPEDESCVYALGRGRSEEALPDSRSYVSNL
activity at 10 µM: recorded values

1. CCn1c(=O)c(C)cn(Cc2nnc(-c3ccc(F)c(O)c3F)s2)c1=O ... 84% (not active)

Note: attention shifts to another entry.
Dear colleague, I am looking for the recorded activity at 10 µM of the following compound: CCn1c(=O)c(C)cn(Cc2nnc(-c3ccc(F)c(OC)c3F)s2)c1=O
93% (not active)

----------
target: voltage-gated Na+ channel (site 2) (Rattus norvegicus, UniProt F1LQQ7+O08562+O88420+O88457+P04774+P04775+P08104+P15389+P15390+Q62968); experiment: NA+/SITE2/R Eurofins SafetyScreen44 (BI); type: protein assay; conditions: rat brain, probe [3H]batrachotoxinin, compound concentration 10 uM, read-out: % Ctrl
value-type: activity at 10 µM

1. CCn1c(=O)c(C)cn(Cc2nnc(-c3ccc(F)c(O)c3F)s2)c1=O ... 73% (not active)

Query compound follows.
Recorded activity at 10 µM of CCn1c(=O)c(C)cn(Cc2nnc(-c3ccc(F)c(OC)c3F)s2)c1=O , please.
88% (not active)

----------
biological target: voltage-dependent K+ channel (stored as IKs; KCNQ1/KCNE1) (Rattus norvegicus, UniProt P15383+Q9Z0N7); assay: K+/VOLT/RA Eurofins SafetyScreen44 (BI); assay type: protein-complex assay; conditions: rat brain, probe [125I]alpha-dendrotoxin, compound concentration 10 uM, read-out: % Ctrl
Sequence (Q9Z0N7 whole entry): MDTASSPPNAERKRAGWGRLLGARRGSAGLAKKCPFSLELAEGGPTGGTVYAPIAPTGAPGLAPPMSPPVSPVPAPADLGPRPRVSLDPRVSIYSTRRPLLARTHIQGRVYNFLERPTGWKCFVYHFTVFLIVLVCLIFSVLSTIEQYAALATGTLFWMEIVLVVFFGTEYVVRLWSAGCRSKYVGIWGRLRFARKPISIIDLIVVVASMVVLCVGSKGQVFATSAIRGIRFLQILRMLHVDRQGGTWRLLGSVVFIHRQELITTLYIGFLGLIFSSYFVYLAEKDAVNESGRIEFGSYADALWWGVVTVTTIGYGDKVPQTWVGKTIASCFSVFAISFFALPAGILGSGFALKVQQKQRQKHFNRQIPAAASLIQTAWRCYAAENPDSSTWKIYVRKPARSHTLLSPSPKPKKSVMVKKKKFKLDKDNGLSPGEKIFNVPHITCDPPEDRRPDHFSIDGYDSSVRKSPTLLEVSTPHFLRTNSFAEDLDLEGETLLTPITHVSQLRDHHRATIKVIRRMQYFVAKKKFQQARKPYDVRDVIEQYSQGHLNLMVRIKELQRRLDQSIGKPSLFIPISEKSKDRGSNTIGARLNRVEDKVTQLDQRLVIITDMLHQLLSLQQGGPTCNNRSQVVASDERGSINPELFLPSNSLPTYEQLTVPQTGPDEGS
Sequence (P15383 whole entry): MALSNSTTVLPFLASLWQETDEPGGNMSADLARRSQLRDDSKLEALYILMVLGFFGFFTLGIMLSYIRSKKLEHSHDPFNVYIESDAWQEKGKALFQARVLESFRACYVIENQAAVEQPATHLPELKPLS
value-type: activity at 10 µM

1. CCn1c(=O)c(C)cn(Cc2nnc(-c3ccc(F)c(OC)c3F)s2)c1=O ... 104% (not active)

Proceed to the following item.
Give the measured activity at 10 µM of CCn1c(=O)c(C)cn(Cc2nnc(-c3ccc(F)c(O)c3F)s2)c1=O .
103% (not active)

----------
target: UniProt:P21396; assay: MAO-A_ANTAG Eurofins SafetyScreen44 (BI); set-up: scale not given: the % may be the effect or the level left; conditions: compound concentration 10 uM, read-out: % Ctrl
Sequence (P21396 whole entry): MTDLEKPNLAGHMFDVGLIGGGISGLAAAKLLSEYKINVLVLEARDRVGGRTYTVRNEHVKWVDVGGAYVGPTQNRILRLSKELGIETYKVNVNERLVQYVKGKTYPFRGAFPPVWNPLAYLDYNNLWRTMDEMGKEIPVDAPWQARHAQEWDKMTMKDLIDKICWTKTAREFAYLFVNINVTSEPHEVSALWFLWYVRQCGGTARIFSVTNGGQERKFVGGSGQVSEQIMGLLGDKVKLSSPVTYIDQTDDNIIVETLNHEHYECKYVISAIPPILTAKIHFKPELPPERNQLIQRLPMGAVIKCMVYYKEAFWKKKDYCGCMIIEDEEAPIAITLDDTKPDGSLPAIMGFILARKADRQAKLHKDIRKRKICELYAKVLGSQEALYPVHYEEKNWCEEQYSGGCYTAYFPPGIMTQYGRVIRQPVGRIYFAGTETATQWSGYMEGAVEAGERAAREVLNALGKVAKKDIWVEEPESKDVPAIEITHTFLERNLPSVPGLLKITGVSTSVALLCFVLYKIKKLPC
value-type: activity at 10 µM

Dear colleague, I am looking for the recorded activity at 10 µM of the following molecule: CCn1c(=O)c(C)cn(Cc2nnc(-c3ccc(F)c(OC)c3F)s2)c1=O
88% (not active)

Data credit: ChEMBL document CHEMBL5303761
